# measurement notes: HPLC capacity factor (k')
# Type: ADME
With a cut-off of 0.2, any Log k' strictly below it is called T; any Log k' meeting it or above is called F.

In [3]: df
Out[3]:
                        structure_as_smiles  qualitative_label
0  CC1(N)CN(c2c(F)cc3c(=O)c(C(=O)O)cn(C4CC4)c3c2Cl)C1                  T
1  CC1(N)CN(c2nc3c(cc2F)c(=O)c(C(=O)O)cn3-c2ccc(F)cc2F)C1                  T
2  CNC1CN(c2cc3c(cc2F)c(=O)c(C(=O)O)cn3C2CC2)C1                  T
3  CN[C@H]1CN(c2cc3c(cc2F)c(=O)c(C(=O)O)cn3C2CC2)[C@@H]1C                  T
4  C[C@@H]1[C@@H](N(C)C)CN1c1cc2c(cc1F)c(=O)c(C(=O)O)cn2C1CC1                  F
5  CC1(C)[C@@H](N)CN1c1c(F)cc2c(=O)c(C(=O)O)cn(C3CC3)c2c1F                  T
6  CC1(N)CN(c2c(F)cc3c(=O)c(C(=O)O)cn(-c4ccc(F)cc4F)c3c2F)C1                  F
7  O=C(O)c1cn(C2CC2)c2c(F)c(N3CCC3)c(F)cc2c1=O                  F

Dear colleague, could you confirm whether Log k' of CC1(N)CN(c2c(F)cc3c(=O)c(C(=O)O)cn(CCF)c3c2F)C1 falls below 0.2? Thanks.
T

* * *

# measurement notes: Dissociation constant (pKa)
# Type: physicochemical
# condition parameters: read-out: pKa2
Below, each entry is listed with its recorded pKa.
Output spec: single numeric token, no unit.

Here is how some compounds turned out for pKa.
In [3]: df
Out[3]:
                        structure_as_smiles  metric  test_result
0  CN[C@H]1CN(c2cc3c(cc2F)c(=O)c(C(=O)O)cn3C2CC2)[C@@H]1C     pKa          8.6
1  CNC1CN(c2cc3c(cc2F)c(=O)c(C(=O)O)cn3C2CC2)C1     pKa         8.56
2  CNC1CN(c2c(F)cc3c(=O)c(C(=O)O)cn(C4CC4)c3c2F)C1     pKa         8.44
3  CC1(N)CN(c2nc3c(cc2F)c(=O)c(C(=O)O)cn3C2CC2)C1     pKa         8.21

Kindly consider the entry below.
I have this compound here, CN(C)C1(C)CN(c2c(F)cc3c(=O)c(C(=O)O)cn(C4CC4)c3c2F)C1 , and I need its recorded pKa.
8.12

* * *

Below, each entry is listed with its recorded pKa.
# measurement notes: Measured ionization constant (pKa)
# Assay type: physicochemical
# condition parameters: read-out: pKa1

>>> print(df.to_string())
                        structure_as_smiles  test_result
0  CC1(N)CN(c2c(F)cc3c(=O)c(C(=O)O)cn(C4CC4)c3c2F)C1         6.23
1  NC1CN(c2c(F)cc3c(=O)c(C(=O)O)cn(C4CC4)c3c2Cl)C1         5.96

I have this compound here, CNC1CN(c2cc3c(cc2F)c(=O)c(C(=O)O)cn3C2CC2)C1 , and I need its recorded pKa.
6.54

Can you check C[C@H]1[C@H](N)CN1c1cc2c(cc1F)c(=O)c(C(=O)O)cn2C1CC1 next?
6.46

Can you check CC1(N)CN(c2nc3c(cc2F)c(=O)c(C(=O)O)cn3C2CC2)C1 next?
6.38

Can you check CCNC1CN(c2cc3c(cc2F)c(=O)c(C(=O)O)cn3C2CC2)C1 next?
6.48

Can you check Nc1c(F)c(N2CC(N)C2)c(F)c2c1c(=O)c(C(=O)O)cn2C1CC1 next?
6.65

Can you check CC1([N+](C)(C)C)CN(c2c(F)cc3c(=O)c(C(=O)O)cn(C4CC4)c3c2F)C1 next?
6.03

Can you check NC1CN(c2c(F)cc3c(=O)c(C(=O)O)cn(C4CC4)c3c2F)C1 next?
6.12

Can you check CNC1CN(c2c(F)cc3c(=O)c(C(=O)O)cn(C4CC4)c3c2F)C1 next?
6.18

Can you check CN(C)C1CN(c2c(F)cc3c(=O)c(C(=O)O)cn(C4CC4)c3c2F)C1 next?
6

Can you check CC1(N)CN(c2c(F)cc3c(=O)c(C(=O)O)cn(C4CC4)c3c2Cl)C1 next?
6.08

Can you check C[C@H]1[C@H](N)CN1c1c(F)cc2c(=O)c(C(=O)O)cn(C3CC3)c2c1Cl next?
6.04

Can you check CNC1(C)CN(c2c(F)cc3c(=O)c(C(=O)O)cn(C4CC4)c3c2F)C1 next?
6.26

Can you check CN[C@H]1CN(c2c(F)cc3c(=O)c(C(=O)O)cn(C4CC4)c3c2F)[C@@H]1C next?
6.13

Can you check CCNC1CN(c2c(F)cc3c(=O)c(C(=O)O)cn(C4CC4)c3c2F)C1 next?
6.2

Can you check CN(C)C1(C)CN(c2c(F)cc3c(=O)c(C(=O)O)cn(C4CC4)c3c2F)C1 next?
6.05

Can you check CN[C@H]1CN(c2cc3c(cc2F)c(=O)c(C(=O)O)cn3C2CC2)[C@@H]1C next?
6.5

Can you check CN(C)C1(C)CN(c2cc3c(cc2F)c(=O)c(C(=O)O)cn3C2CC2)C1 next?
6.47

Can you check NC1CN(c2cc3c(cc2F)c(=O)c(C(=O)O)cn3C2CC2)C1 next?
6.49

* * *

# System: Morganella morganii
# measurement notes: In vitro minimum inhibitory concentration for Morganella morganii ATCC 8019
# Assay type: functional
metric: MIC (µg/mL)
Quick reminder: number only, in µg/mL, skip the unit.

Here is how some molecules turned out for MIC.
>>> print(df.to_string())
                                   molecule            tested_on  measure_unit  test_result
0  C[C@H]1[C@H](N)CN1c1c(F)cc2c(=O)c(C(=O)O)cn(-c3ccc(F)cc3F)c2c1Cl  Morganella morganii         µg/mL         0.25
1  O=C(O)c1cn(C2CC2)c2cc(N3CCNCC3)c(F)cc2c1=O [CIPROFLOXACIN]  Morganella morganii         µg/mL         0.06
2  CC[C@H]1[C@@H](N)CN1c1cc2c(cc1F)c(=O)c(C(=O)O)cn2C1CC1  Morganella morganii         µg/mL         0.25
3  C[C@@H]1[C@@H](N(C)C)CN1c1cc2c(cc1F)c(=O)c(C(=O)O)cn2C1CC1  Morganella morganii         µg/mL          0.5

// map C[C@H]1N(c2c(F)cc3c(=O)c(C(=O)O)cn(C4CC4)c3c2F)C[C@]1(C)O to recorded MIC (system: Morganella morganii)
0.5

Can you check CC[C@H]1[C@@H](O)CN1c1c(F)cc2c(=O)c(C(=O)O)cn(C3CC3)c2c1F next?
1

Can you check C[C@H]1[C@H](N)CN1c1c(F)cc2c(=O)c(C(=O)O)cn(CCF)c2c1F next?
0.06

Can you check CCNC[C@H]1CN(c2c(F)cc3c(=O)c(C(=O)O)cn(C4CC4)c3c2F)[C@@H]1C next?
0.5

Can you check C[C@H]1[C@H](N)CN1c1cc2c(cc1F)c(=O)c(C(=O)O)cn2CCF next?
0.12

Can you check C[C@H]1N(c2c(F)cc3c(=O)c(C(=O)O)cn(C4CC4)c3c2F)C[C@]1(C)N next?
0.12

* * *

# measurement notes: Solubility (buffer pH 7.4)
# Format: physicochemical
# condition parameters: read-out: S
Label rule, in plain words: solubility of 10 µg/mL and up is label 1, under 10 µg/mL is label 0.

Test whether the compound CN(C)C1CN(c2c(F)cc3c(=O)c(C(=O)O)cn(C4CC4)c3c2F)C1 records solubility of 10 µg/mL or higher.
label 1

Can you check C[C@H]1[C@H](N)CN1c1nc2c(cc1F)c(=O)c(C(=O)O)cn2-c1ccc(F)cc1F next?
label 1

* * *

# Test system: Enterococcus faecalis
# measurement notes: In vitro minimum inhibitory concentration for Streptococcus faecalis ATCC 10541
# Assay type: functional
metric: MIC (µg/mL)
Quick reminder: number only, in µg/mL, skip the unit.

Here is how some compounds turned out for MIC.
                        structure_as_smiles              tested_on  measure_unit  test_result
0  C[C@H]1[C@H](N)CN1c1c(F)cc2c(=O)c(C(=O)O)cn(-c3ccc(F)cc3F)c2c1Cl  Enterococcus faecalis         µg/mL         0.25
1  C[C@H]1[C@H](N)CN1c1c(F)cc2c(=O)c(C(=O)O)cn(CCF)c2c1F  Enterococcus faecalis         µg/mL            2
2  CCNC[C@H]1CN(c2c(F)cc3c(=O)c(C(=O)O)cn(C4CC4)c3c2F)[C@@H]1C  Enterococcus faecalis         µg/mL            2

I have this compound here, C[C@H]1[C@H](N)CN1c1nc2c(cc1F)c(=O)c(C(=O)O)cn2-c1ccc(F)cc1F , and I need its recorded MIC.
1

Can you check C[C@@H]1[C@@H](N(C)C)CN1c1cc2c(cc1F)c(=O)c(C(=O)O)cn2C1CC1 next?
4

Can you check CCn1cc(C(=O)O)c(=O)c2cc(F)c(N3C[C@@H](N)[C@@H]3C)nc21 next?
2

Can you check C[C@H]1[C@H](N)CN1c1c(F)cc2c(=O)c(C(=O)O)cn3c2c1SCC3 next?
8

Can you check C[C@@H]1[C@@H](CN)CN1c1c(F)cc2c(=O)c(C(=O)O)cn(C3CC3)c2c1F next?
0.25

Can you check C[C@H]1[C@H](N)CN1c1nc2c(cc1F)c(=O)c(C(=O)O)cn2C1CC1 next?
0.25
